- assay name: melting temperature; fluorescence melt of hairpins on a sequencing array, two-state fit, raised by 9.35 °C to match UV melts
- condition info: sodium 0.088 M
Rule: Satisfied for Tm not less than 50 °C, Not satisfied for anything less.

construct sequence	assigned class
GATCTTCCGTAAGATC ((((((....))))))	Not satisfied
GGAAGGCCGAAAGGCTCC (((..(((....))))))	Not satisfied
CGGACGGAAACGTTACCG ((((((....)))..)))	Not satisfied
GCGATCGAAAGATGCGC ((((((....))).)))	Satisfied
GTCTACGAAAGTACAGAC ((((((....)))..)))	Not satisfied
GATCGTCTAAACGATC ((((((....))))))	Satisfied
GCCCTGCGAAAGCCAGGC (((..((....))..)))	Satisfied
GCGTCGCTACGC ((((....))))	Satisfied
GAACTCGGAAACAAGTTC (((((.(....).)))))	Not satisfied

Origin of measurements: the array DNA melting data of Ke et al. (doi:10.1101/2024.01.08.574731)
